Overview of reported MIC across a group of compounds:
tested on: Staphylococcus fleurettii; assay: Antibacterial activity against mecA-negative Staphylococcus fleurettii SFMN02 by agar dilution method; format: functional; conditions: Mammaliicoccus fleurettii
The reply should consist of the numeric value with the unit placed after it.

As a guide, the following entries are already answered.
CO/N=C(\C(=O)N[C@@H]1C(=O)N2C(C(=O)O)=C(CSc3nc(=O)c(O)nn3C)CS[C@H]12)c1csc(N)n1	4 µg/mL
CO[C@@]1(NC(=O)Cc2cccs2)C(=O)N2C(C(=O)O)=C(COC(N)=O)CS[C@@H]21	2 µg/mL
CC1(C)S[C@@H]2[C@H](NC(=O)[C@H](N)c3ccccc3)C(=O)N2[C@H]1C(=O)O	0.125 µg/mL

Entry CO/N=C(\C(=O)N[C@@H]1C(=O)N2C(C(=O)O)=CCS[C@H]12)c1csc(N)n1 , system Staphylococcus fleurettii: what MIC was measured? 2 µg/mL

Entry Cc1onc(-c2ccccc2)c1C(=O)N[C@@H]1C(=O)N2[C@@H]1SC(C)(C)[C@@H]2C(=O)O , system Staphylococcus fleurettii: what MIC was measured? 0.5 µg/mL

###

test system: Staphylococcus vitulinus; experiment: Antibacterial activity against mecA-negative Staphylococcus vitulinus SVMN12 by agar dilution method; format: functional; conditions: Mammaliicoccus vitulinus
Overview of reported MIC across a group of compounds:
// units = µg/mL; emit number, no label

As a guide, the following entries are already answered.
CO/N=C(\C(=O)N[C@@H]1C(=O)N2C(C(=O)O)=C(CSc3nc(=O)c(O)nn3C)CS[C@H]12)c1csc(N)n1 [CEFTRIAXONE]	1
CO/N=C(\C(=O)N[C@@H]1C(=O)N2C(C(=O)O)=CCS[C@H]12)c1csc(N)n1 [CEFTIZOXIME]	0.5
Cc1onc(-c2ccccc2)c1C(=O)N[C@@H]1C(=O)N2[C@@H]1SC(C)(C)[C@@H]2C(=O)O [OXACILLIN]	0.5

Entry CO[C@@]1(NC(=O)Cc2cccs2)C(=O)N2C(C(=O)O)=C(COC(N)=O)CS[C@@H]21 [CEFOXITIN] , system Staphylococcus vitulinus: what MIC was measured? 1

###

tested on: Staphylococcus fleurettii; assay: Antibacterial activity against methicillin-resistant mecA-positive Staphylococcus fleurettii SFMP03 by agar dilution method; format: functional; conditions: Mammaliicoccus fleurettii
Overview of reported MIC across a group of compounds:
// units = µg/mL; emit number, no label

Cc1onc(-c2ccccc2)c1C(=O)N[C@@H]1C(=O)N2[C@@H]1SC(C)(C)[C@@H]2C(=O)O [OXACILLIN]	128

Item under review: CO[C@@]1(NC(=O)Cc2cccs2)C(=O)N2C(C(=O)O)=C(COC(N)=O)CS[C@@H]21 [CEFOXITIN] . Reported MIC? 8

###

system: Staphylococcus fleurettii; assay: Antibacterial activity against methicillin-resistant mecA-positive Staphylococcus fleurettii SFMP08 by agar dilution method; type: functional; conditions: Mammaliicoccus fleurettii
Readout type: log10(MIC) (log10 of the value in µg/mL)
# log10 transformed; quantity=MIC; unit=µg/mL

As a guide, the following entries are already answered.
CC1(C)S[C@@H]2[C@H](NC(=O)[C@H](N)c3ccccc3)C(=O)N2[C@H]1C(=O)O [AMPICILLIN]	0.00
Cc1onc(-c2ccccc2)c1C(=O)N[C@@H]1C(=O)N2[C@@H]1SC(C)(C)[C@@H]2C(=O)O [OXACILLIN]	1.81
CO/N=C(\C(=O)N[C@@H]1C(=O)N2C(C(=O)O)=CCS[C@H]12)c1csc(N)n1 [CEFTIZOXIME]	1.51

Item under review: CO/N=C(\C(=O)N[C@@H]1C(=O)N2C(C(=O)O)=C(CSc3nc(=O)c(O)nn3C)CS[C@H]12)c1csc(N)n1 [CEFTRIAXONE] . Reported log10(MIC)? 1.20

Item under review: CO[C@@]1(NC(=O)Cc2cccs2)C(=O)N2C(C(=O)O)=C(COC(N)=O)CS[C@@H]21 [CEFOXITIN] . Reported log10(MIC)? 0.30
